Test system: Pichia kudriavzevii
Experiment: Antiyeast activity against Candida krusei 1-T assessed as total inhibition of fungal growth after 24 to 48 hrs by microdilution-colorimetric method
Type: functional
Starred links: 1 amine or outer side, 2 acyl side, 3 side chain; linkers in the order of their positions; H or OH if unused. Residues, ends and D or L forms follow the SMILES beside them. *: point of attachment. Suc = O=C(CCC(=O)[*:2])[*:1]; OBn = c1ccc(CO*)cc1
ENDPOINT: MIC (µg/mL)
Just the number in µg/mL, nothing appended.

Answered examples (6):
[[record]]
compound = "O=C(O)CCC(=O)O [SUCCINIC ACID]"
measurement_units = "µg/mL"
measured_result = 320

[[record]]
compound = "O=c1[nH]cc(F)c(=O)[nH]1 [FLUOROURACIL]"
measurement_units = "µg/mL"
measured_result = 2.5

[[record]]
compound = "O=C(O)CCC(=O)NCC(=O)NCC(=O)OCc1ccccc1 (Suc-Gly-Gly-OBn)"
measurement_units = "µg/mL"
measured_result = 320

[[record]]
compound = "C[C@H](NC(=O)OC(C)(C)C)C(=O)NCC(=O)Nc1nc(=O)[nH]cc1F"
measurement_units = "µg/mL"
measured_result = 20

[[record]]
compound = "O=C(CCC(=O)Nc1nc(=O)[nH]cc1F)NCC(=O)NCC(=O)OCc1ccccc1"
measurement_units = "µg/mL"
measured_result = 20

[[record]]
compound = "CC(C)(C)OC(=O)N[C@@H](CCC(=O)Nc1nc(=O)[nH]cc1F)C(=O)OCc1ccccc1"
measurement_units = "µg/mL"
measured_result = 20


What value of MIC has been reported for the following compound? CC(C)C[C@H](NC(=O)CCC(=O)Nc1nc(=O)[nH]cc1F)C(=O)N[C@@H](CC(C)C)C(=O)OCc1ccccc1
20

Given the compound CC(C)C[C@H](NC(=O)[C@H](CC(C)C)NC(=O)CCC(=O)Nc1nc(=O)[nH]cc1F)C(=O)O , what is its reported MIC?
10

So what does the record say about MIC for O=C(CNC(=O)OCc1ccccc1)Nc1nc(=O)[nH]cc1F ?
10
